Just for reference, paper PMC5540273 is where these values come from.

Give %Inh for every item shown.
system: RAF1; conditions: concentration: 1 μM, replicates: in singlicate; n = 1;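 further: KINOMEscan kinase panel screen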
# number only, unit % dropped from output

Find the recorded %Inh belonging to Cl.c1ccc(Cn2ncc3cc(Nc4ncnc5ccccc45)ccc32)cc1 [GW273749] and report it.
16

What would you report for `COC(=O)c1c(-c2ccccc2)c2cc(Cl)ccc2c(=O)n1Cc1ccc(S(C)(=O)=O)cc1` ?
49

What would you report for FC(F)(F)c1cc(Nc2nccc(-c3c(-c4ccc(Cl)cc4)nn4ncccc34)n2)ccc1Cl [GW829351] ?
1

What would you report for Cc1ccc(C)c(NC(=O)NCCNc2ccnc(Nc3ccc(F)cc3)n2)c1 [GSK1379878] ?
42

====

system: TBK1; conditions: concentration: 1 μM, replicates: in singlicate; n = 1
satisfied means recorded %Inh is 20% or above; not satisfied means it is below 20%.

Hi team, for CNc1nccc(-c2c(-c3ccc(F)cc3)ncn2CCCN2CCOCC2)n1 [SB-222516] , is the recorded %Inh at or above 20%?
not satisfied

What would you report for O=C(c1ccc(-c2cc(-c3c[nH]nc3-c3ccccn3)ccn2)cc1)N1CCCC1 [GW792479] ?
satisfied

What would you report for COc1ccc(-c2oc3ncnc(N)c3c2-c2ccc(OC)cc2)cc1 [SB-589132] ?
not satisfied

What would you report for CCc1nc(-c2cccc(N(C)S(=O)(=O)c3ccccc3)c2)c(-c2ccnc(Nc3ccc(N4CCN(C(C)=O)CC4)nc3)n2)s1 [GSK1645895] ?
satisfied

What would you report for Cl.Cl.c1ccc(-c2cc3ccncc3cc2OC2CCNCC2)cc1 [GSK1122999] ?
satisfied

What would you report for Cl.O=S(=O)(c1cccc(F)c1)c1ccc(Nc2ncnc3cc(Br)sc23)cc1Cl [GSK306886] ?
not satisfied

What would you report for NC(=O)c1sc(-n2cnc3ccccc32)cc1OCc1ccccc1F [GSK1024306] ?
not satisfied

What would you report for CC(C)(C)c1ccc(-n2cnc3c(N)ncnc32)cc1 [SKF-97263] ?
not satisfied

====

test system: MAP3K1; conditions: concentration: 1 μM, replicates: in singlicate; n = 1
class 1 means recorded %Inh is 10% or above; class 0 means it is below 10%.

Hi team, for Cl.c1ccc(Cn2ccc3cc(Nc4ncnc5ccccc45)ccc32)cc1 [GW275568] , is the recorded %Inh at or above 10%?
class 0

What would you report for COc1cc2ncnc(Nc3ccc(OCc4ccccc4Br)c(Cl)c3)c2cc1OC.Cl [GI261590] ?
class 0

What would you report for Fc1cccc(COc2ccc(Nc3ncnc4sc(-c5ccc[nH]5)cc34)cc2Cl)c1 [GW707818] ?
class 0

What would you report for CS(=O)(=O)CCNCc1ccc(-c2ccc3ncnc(Nc4ccc(OCc5ccccc5)c(Cl)c4)c3c2)o1.Cl [GW574783] ?
class 1

What would you report for NC(=O)c1sc(-n2cnc3ccccc32)cc1OCc1ccccc1F [GSK1024306] ?
class 1

What would you report for c1ccc(-c2ccc3c(-c4ccnc(Nc5ccc6c(c5)OCCO6)n4)cnn3n2)cc1 [GW818941] ?
class 0

What would you report for CNc1nccc(-c2c(-c3ccc(F)cc3)ncn2CCCN2CCOCC2)n1 [SB-222516] ?
class 1

What would you report for Nc1n[nH]c2nnc(-c3ccccc3)cc12 [SB-517389] ?
class 0
